Can you tell me CC50 for the items I'm about to list?
- assayText: Cytotoxicity in Huh-7 cells
- Assay type: cell-based
- studyConditions: human

Data request, read-out CC50, for COC(=O)C(C)(C)NP(=O)(OC[C@H]1O[C@@H](n2ccc(=O)[nH]c2=O)[C@@]2(CCO2)[C@@H]1O)Oc1ccccc1 (stereo partly shown) [Compound 12e]
> 98 µM

Data request, read-out CC50, for O=C(CNP(=O)(OC[C@H]1O[C@@H](n2ccc(=O)[nH]c2=O)[C@@]2(CCO2)[C@@H]1O)Oc1ccc(Cl)cc1)OCc1ccccc1 (stereo partly shown) [Compound 12m]
> 98 µM

Data request, read-out CC50, for C[C@H](NP(=O)(OC[C@H]1O[C@@H](n2ccc(=O)[nH]c2=O)[C@@]2(CCO2)[C@@H]1O)Oc1ccccc1)C(=O)OCC(C)(C)C (stereo partly shown) [Compound 12c]
> 98 µM

Data request, read-out CC50, for CC(C)OC(=O)[C@H](C)NP(=O)(OC[C@H]1O[C@@H](n2ccc(=O)[nH]c2=O)[C@@]2(CCO2)[C@@H]1O)Oc1ccccc1 (stereo partly shown) [Compound 12g]
> 98 µM

Data request, read-out CC50, for CC(C)COC(=O)[C@H](C)NP(=O)(OC[C@H]1O[C@@H](n2ccc(=O)[nH]c2=O)[C@@]2(CCO2)[C@@H]1O)Oc1ccccc1 (stereo partly shown) [Compound 12l]
> 98 µM

Data request, read-out CC50, for CC[C@H](NP(=O)(OC[C@H]1O[C@@H](n2ccc(=O)[nH]c2=O)[C@@]2(CCO2)[C@@H]1O)Oc1ccccc1)C(=O)OC(C)C (stereo partly shown) [Compound 12i]
> 98 µM

Data request, read-out CC50, for C[C@H](NP(=O)(OC[C@H]1O[C@@H](n2ccc(=O)[nH]c2=O)[C@@]2(CCO2)[C@@H]1O)Oc1cccc2ccccc12)C(=O)OCc1ccccc1 (stereo partly shown) [Compound 12k]
> 98 µM

Data request, read-out CC50, for Cc1ccc(C(C)C)c(OP(=O)(N[C@@H](C)C(=O)OCc2ccccc2)OC[C@H]2O[C@@H](n3ccc(=O)[nH]c3=O)[C@@]3(CCO3)[C@@H]2O)c1 (stereo partly shown) [Compound 12f]
18.7 µM

Data request, read-out CC50, for C[C@H](NP(=O)(OC[C@H]1O[C@@H](n2ccc(=O)[nH]c2=O)[C@@]2(CCO2)[C@@H]1O)Oc1ccccc1)C(=O)OCc1ccccc1 (stereo partly shown) [Compound 12b]
> 98 µM

Data request, read-out CC50, for C[C@H](NP(=O)(OC[C@H]1O[C@@H](n2ccc(=O)[nH]c2=O)[C@@]2(CCO2)[C@@H]1O)Oc1ccc(Cl)cc1)C(=O)OCc1ccccc1 (stereo partly shown) [Compound 12j]
> 98 µM

Data request, read-out CC50, for O=C(OCc1ccccc1)[C@@H](NP(=O)(OC[C@H]1O[C@@H](n2ccc(=O)[nH]c2=O)[C@@]2(CCO2)[C@@H]1O)Oc1ccccc1)c1ccccc1 (stereo partly shown) [Compound 12h]
> 88 µM

Data request, read-out CC50, for CC[C@H](NP(=O)(OC[C@H]1O[C@@H](n2ccc(=O)[nH]c2=O)[C@@]2(CCO2)[C@@H]1O)Oc1ccccc1)C(=O)OCc1ccccc1 (stereo partly shown) [Compound 12a]
> 98 µM

Data request, read-out CC50, for CCCCOC(=O)[C@H](C)NP(=O)(OC[C@H]1O[C@@H](n2ccc(=O)[nH]c2=O)[C@@]2(CCO2)[C@@H]1O)Oc1ccccc1 (stereo partly shown) [Compound 12d]
> 98 µM
